Tested on: ACHN
assay_protocol: Antiproliferative activity against human ACHN cells after 48 hrs
Type: functional
experimental_parameters: read-out: Log TGI (converted)
Catalogue of molecules with associated TGI

{"smiles_str": "CCCCCCCCCCCCCCN[C@H](C)[C@@H](O)c1ccccc1.Cl", "unit_symbol": "µM", "TGI": 3.31}
{"smiles_str": "CCCCCCCCCCCCCCN[C@H](CO)[C@H](O)c1ccccc1", "unit_symbol": "µM", "TGI": 3.16}
{"smiles_str": "CCCCCCCCCCCCCCN[C@@H](C)[C@H](O)c1ccccc1", "unit_symbol": "µM", "TGI": 3.31}
{"smiles_str": "C[C@H](NC(=O)CCCCCCCCCCCCCCC[n+]1ccccc1)[C@H](O)c1ccccc1.[Br-]", "unit_symbol": "µM", "TGI": 44.7}
{"smiles_str": "CCCCCCCCCCCCCCN[C@@H](CO)Cc1ccccc1", "unit_symbol": "µM", "TGI": 3.16}
{"smiles_str": "CCCCCCCCCCCCCCN[C@H](CO)[C@H](O)c1ccc([N+](=O)[O-])cc1.Cl", "unit_symbol": "µM", "TGI": 3.39}
{"smiles_str": "C[C@@H](NC(=O)CCCCCCCCCCCCCCC[n+]1ccccc1)[C@@H](O)c1ccccc1.[Br-]", "unit_symbol": "µM", "TGI": 33.1}

###

Test system: ACHN
assay_protocol: Antiproliferative activity against human ACHN cells after 48 hrs
Assay type: functional
Catalogue of compounds with associated log10(GI50)
measure_name: log10(GI50) (log10 of the value in nM)

{"smiles_str": "C[C@H](NC(=O)CCCCCCCCCCCCCCC[n+]1ccccc1)[C@H](O)c1ccccc1.[Br-]", "target_under_test": "ACHN", "numeric_readout": 4.34}
{"smiles_str": "CCCCCCCCCCCCCCN[C@H](CO)[C@H](O)c1ccccc1", "target_under_test": "ACHN", "numeric_readout": 3.24}
{"smiles_str": "CCCCCCCCCCCCCCN[C@H](CO)[C@H](O)c1ccc([N+](=O)[O-])cc1.Cl", "target_under_test": "ACHN", "numeric_readout": 3.27}
{"smiles_str": "CCCCCCCCCCCCCCN[C@@H](C)[C@H](O)c1ccccc1", "target_under_test": "ACHN", "numeric_readout": 3.25}
{"smiles_str": "C[C@@H](NC(=O)CCCCCCCCCCCCCCC[n+]1ccccc1)[C@@H](O)c1ccccc1.[Br-]", "target_under_test": "ACHN", "numeric_readout": 4.23}
{"smiles_str": "CCCCCCCCCCCCCCN[C@@H](CO)Cc1ccccc1", "target_under_test": "ACHN", "numeric_readout": 3.23}
{"smiles_str": "CCCCCCCCCCCCCCN[C@H](C)[C@@H](O)c1ccccc1.Cl", "target_under_test": "ACHN", "numeric_readout": 3.27}

###

Catalogue of molecules with associated GI50
Test system: MOLT-4
assay_protocol: Antiproliferative activity against human MOLT4 cells after 48 hrs
Format: functional
experimental_parameters: MOLT-4, 48 h

{"smiles_str": "CCCCCCCCCCCCCCN[C@@H](C)[C@H](O)c1ccccc1", "GI50 (nM)": 2290}
{"smiles_str": "CCCCCCCCCCCCCCN[C@@H](CO)Cc1ccccc1", "GI50 (nM)": 2040}
{"smiles_str": "CCCCCCCCCCCCCCN[C@H](C)[C@@H](O)c1ccccc1.Cl", "GI50 (nM)": 871}
{"smiles_str": "CCCCCCCCCCCCCCN[C@H](CO)[C@H](O)c1ccccc1", "GI50 (nM)": 2090}
{"smiles_str": "C[C@@H](NC(=O)CCCCCCCCCCCCCCC[n+]1ccccc1)[C@@H](O)c1ccccc1.[Br-]", "GI50 (nM)": 2510}
{"smiles_str": "C[C@H](NC(=O)CCCCCCCCCCCCCCC[n+]1ccccc1)[C@H](O)c1ccccc1.[Br-]", "GI50 (nM)": 4900}
{"smiles_str": "CCCCCCCCCCCCCCN[C@H](CO)[C@H](O)c1ccc([N+](=O)[O-])cc1.Cl", "GI50 (nM)": 1620}

###

System: HT-29
assay_protocol: Antiproliferative activity against human HT29 cells after 48 hrs
Type: functional
experimental_parameters: HT-29, 48 h, read-out: Log TGI (converted)
measure_name: TGI (µM)

{"smiles_str": "C[C@H](NC(=O)CCCCCCCCCCCCCCC[n+]1ccccc1)[C@H](O)c1ccccc1.[Br-]", "measure_name": "TGI", "unit_symbol": "µM", "numeric_readout": 11.7}
{"smiles_str": "CCCCCCCCCCCCCCN[C@H](CO)[C@H](O)c1ccc([N+](=O)[O-])cc1.Cl", "measure_name": "TGI", "unit_symbol": "µM", "numeric_readout": 3.47}
{"smiles_str": "CCCCCCCCCCCCCCN[C@@H](CO)Cc1ccccc1", "measure_name": "TGI", "unit_symbol": "µM", "numeric_readout": 3.98}
{"smiles_str": "CCCCCCCCCCCCCCN[C@@H](C)[C@H](O)c1ccccc1", "measure_name": "TGI", "unit_symbol": "µM", "numeric_readout": 3.55}
{"smiles_str": "CCCCCCCCCCCCCCN[C@H](C)[C@@H](O)c1ccccc1.Cl", "measure_name": "TGI", "unit_symbol": "µM", "numeric_readout": 3.24}
{"smiles_str": "C[C@@H](NC(=O)CCCCCCCCCCCCCCC[n+]1ccccc1)[C@@H](O)c1ccccc1.[Br-]", "measure_name": "TGI", "unit_symbol": "µM", "numeric_readout": 3.47}
{"smiles_str": "CCCCCCCCCCCCCCN[C@H](CO)[C@H](O)c1ccccc1", "measure_name": "TGI", "unit_symbol": "µM", "numeric_readout": 3.09}

###

Test system: COLO 205
assay_protocol: Antiproliferative activity against human COLO205 cells after 48 hrs
Type: functional
experimental_parameters: COLO 205, 48 h
Catalogue of compounds with associated GI50

{"smiles_str": "C[C@H](NC(=O)CCCCCCCCCCCCCCC[n+]1ccccc1)[C@H](O)c1ccccc1.[Br-]", "GI50 [nM]": 1050}
{"smiles_str": "CCCCCCCCCCCCCCN[C@H](C)[C@@H](O)c1ccccc1.Cl", "GI50 [nM]": 1910}
{"smiles_str": "CCCCCCCCCCCCCCN[C@H](CO)[C@H](O)c1ccccc1", "GI50 [nM]": 1860}
{"smiles_str": "CCCCCCCCCCCCCCN[C@@H](CO)Cc1ccccc1", "GI50 [nM]": 1660}
{"smiles_str": "CCCCCCCCCCCCCCN[C@@H](C)[C@H](O)c1ccccc1", "GI50 [nM]": 1740}
{"smiles_str": "CCCCCCCCCCCCCCN[C@H](CO)[C@H](O)c1ccc([N+](=O)[O-])cc1.Cl", "GI50 [nM]": 1780}
{"smiles_str": "C[C@@H](NC(=O)CCCCCCCCCCCCCCC[n+]1ccccc1)[C@@H](O)c1ccccc1.[Br-]", "GI50 [nM]": 1380}

###

Test system: Hs-578T
assay_protocol: Antiproliferative activity against human HS578T cells after 48 hrs
Assay type: functional
Catalogue of compounds with associated LC50

{"smiles_str": "CCCCCCCCCCCCCCN[C@H](CO)[C@H](O)c1ccc([N+](=O)[O-])cc1.Cl", "LC50": "100 µM"}
{"smiles_str": "CCCCCCCCCCCCCCN[C@@H](CO)Cc1ccccc1", "LC50": "11 µM"}
{"smiles_str": "CCCCCCCCCCCCCCN[C@H](C)[C@@H](O)c1ccccc1.Cl", "LC50": "46.8 µM"}
{"smiles_str": "CCCCCCCCCCCCCCN[C@@H](C)[C@H](O)c1ccccc1", "LC50": "> 100 µM"}
{"smiles_str": "C[C@H](NC(=O)CCCCCCCCCCCCCCC[n+]1ccccc1)[C@H](O)c1ccccc1.[Br-]", "LC50": "> 100 µM"}
{"smiles_str": "C[C@@H](NC(=O)CCCCCCCCCCCCCCC[n+]1ccccc1)[C@@H](O)c1ccccc1.[Br-]", "LC50": "9.12 µM"}
{"smiles_str": "CCCCCCCCCCCCCCN[C@H](CO)[C@H](O)c1ccccc1", "LC50": "> 100 µM"}

###

Catalogue of compounds with associated GI50
Test system: DU-145
assay_protocol: Antiproliferative activity against human DU145 cells after 48 hrs
Type: functional
experimental_parameters: DU-145, 48 h

{"smiles_str": "CCCCCCCCCCCCCCN[C@H](CO)[C@H](O)c1ccc([N+](=O)[O-])cc1.Cl", "GI50": "1.55 µM"}
{"smiles_str": "CCCCCCCCCCCCCCN[C@@H](CO)Cc1ccccc1", "GI50": "1.45 µM"}
{"smiles_str": "C[C@H](NC(=O)CCCCCCCCCCCCCCC[n+]1ccccc1)[C@H](O)c1ccccc1.[Br-]", "GI50": "12.6 µM"}
{"smiles_str": "CCCCCCCCCCCCCCN[C@@H](C)[C@H](O)c1ccccc1", "GI50": "1.86 µM"}
{"smiles_str": "CCCCCCCCCCCCCCN[C@H](CO)[C@H](O)c1ccccc1", "GI50": "1.66 µM"}
{"smiles_str": "CCCCCCCCCCCCCCN[C@H](C)[C@@H](O)c1ccccc1.Cl", "GI50": "1.48 µM"}
{"smiles_str": "C[C@@H](NC(=O)CCCCCCCCCCCCCCC[n+]1ccccc1)[C@@H](O)c1ccccc1.[Br-]", "GI50": "3.47 µM"}
